TARGET_OR_SYSTEM: Hepatitis B virus polymerase (Hepatitis B virus genotype D subtype ayw, UniProt P03156)
Sequence (P03156 whole entry): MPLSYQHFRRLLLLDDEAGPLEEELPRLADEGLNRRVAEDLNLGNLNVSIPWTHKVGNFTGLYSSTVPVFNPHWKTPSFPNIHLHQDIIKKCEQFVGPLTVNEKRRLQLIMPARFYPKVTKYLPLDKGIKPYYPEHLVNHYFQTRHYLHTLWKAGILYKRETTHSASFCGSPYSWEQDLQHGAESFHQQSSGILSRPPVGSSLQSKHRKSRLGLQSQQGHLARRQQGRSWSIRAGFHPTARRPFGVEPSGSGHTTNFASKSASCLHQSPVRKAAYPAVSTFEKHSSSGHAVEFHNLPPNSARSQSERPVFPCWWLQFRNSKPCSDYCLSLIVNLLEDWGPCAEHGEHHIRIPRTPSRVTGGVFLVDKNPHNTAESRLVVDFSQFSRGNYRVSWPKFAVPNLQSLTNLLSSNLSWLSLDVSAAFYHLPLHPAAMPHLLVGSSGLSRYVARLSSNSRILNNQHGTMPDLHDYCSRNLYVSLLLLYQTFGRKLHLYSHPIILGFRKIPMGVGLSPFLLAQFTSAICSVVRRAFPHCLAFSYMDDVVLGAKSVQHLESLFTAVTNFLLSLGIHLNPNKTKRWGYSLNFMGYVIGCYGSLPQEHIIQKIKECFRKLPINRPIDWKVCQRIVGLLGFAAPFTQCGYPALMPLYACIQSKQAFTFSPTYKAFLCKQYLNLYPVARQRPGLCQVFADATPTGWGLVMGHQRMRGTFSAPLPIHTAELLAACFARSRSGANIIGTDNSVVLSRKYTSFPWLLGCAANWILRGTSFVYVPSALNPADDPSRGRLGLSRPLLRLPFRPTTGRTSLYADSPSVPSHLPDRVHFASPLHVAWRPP
pIC50: −log10 of the molar value.
Parameter pIC50: see the listing below.
OUTCOME_MEASURE: pIC50

COMPOUND: CC=Cc1cn([C@H]2C[C@H](O)[C@@H](CO)O2)c(=O)[nH]c1=O
TARGET_OR_SYSTEM: Hepatitis B virus polymerase (Hepatitis B virus genotype D subtype ayw, UniProt P03156)
EXPERIMENTAL_RESULT: 7.00
//
COMPOUND: O=c1[nH]c(=O)n([C@H]2C[C@H](O)[C@@H](CO)O2)cc1CO [5-hydroxymethyl-2'-deoxyuridine]
TARGET_OR_SYSTEM: Hepatitis B virus polymerase (Hepatitis B virus genotype D subtype ayw, UniProt P03156)
EXPERIMENTAL_RESULT: 6.60
//
COMPOUND: CC=Cc1cn([C@@H]2O[C@H](CO)[C@@H](O)[C@@H]2O)c(=O)[nH]c1=O
TARGET_OR_SYSTEM: Hepatitis B virus polymerase (Hepatitis B virus genotype D subtype ayw, UniProt P03156)
EXPERIMENTAL_RESULT: 6.62
//
COMPOUND: CCc1cn([C@H]2C[C@H](O)[C@@H](CO)O2)c(=O)[nH]c1=O
TARGET_OR_SYSTEM: Hepatitis B virus polymerase (Hepatitis B virus genotype D subtype ayw, UniProt P03156)
EXPERIMENTAL_RESULT: 6.60
